pIC50, BCL-2 binding to biotinylated BAK peptide (Homo sapiens (Human), UniProt P10415), per-entry values.
pIC50: −log10 of the molar value.

Form field, pIC50 with BCL-2 binding to biotinylated BAK peptide (Homo sapiens (Human), UniProt P10415), item CCCCN(CCCC)C(=O)c1nn(-c2ccc(OCC(=O)Nc3ccccc3)cc2C(=O)N2Cc3ccccc3C[C@H]2CO)c(C)c1Cl : 6.36 to 6.39

Summary: CCCCN(CCCC)C(=O)c1cc(C)n(-c2cc(OCC(=O)Nc3ccccc3)ccc2C(=O)N2Cc3ccccc3C[C@H]2CO)n1 , BCL-2 binding to biotinylated BAK peptide (Homo sapiens (Human), UniProt P10415), pIC50 = 5.88 to 5.90

Value sought: pIC50, system BCL-2 binding to biotinylated BAK peptide (Homo sapiens (Human), UniProt P10415), item CCCCN(CCCC)C(=O)c1cc(C)n(-c2cc(O)ccc2C(=O)N2Cc3ccccc3C[C@H]2CO)n1 . Result: 6.59 to 6.62

Assay BCL-2 binding to biotinylated BAK peptide (Homo sapiens (Human), UniProt P10415), sample CCCCN(CCCC)C(=O)c1nn(-c2ccc(OCC(=O)O)cc2C(=O)N2Cc3ccccc3C[C@H]2CO)c(C)c1Cl , pIC50 read: 6.86 to 6.88

====

# TARGET_OR_SYSTEM: BCL-2 binding to biotinylated BAD peptide (Homo sapiens (Human))
# Sequence (P10415 whole entry): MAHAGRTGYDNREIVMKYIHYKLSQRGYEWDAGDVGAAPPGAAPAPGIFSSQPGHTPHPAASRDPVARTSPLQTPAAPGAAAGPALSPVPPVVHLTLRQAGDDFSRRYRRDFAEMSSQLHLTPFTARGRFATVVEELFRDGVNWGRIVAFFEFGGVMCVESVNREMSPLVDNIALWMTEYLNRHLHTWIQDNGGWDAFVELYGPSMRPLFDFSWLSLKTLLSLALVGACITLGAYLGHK
pIC50: −log10 of the molar value.
Reported pIC50 values for the following molecules.

Some entries whose results are on file:
[
  {
    "SMILES_INPUT": "CCCCN(CCCC)C(=O)c1cc(C)n(-c2cc(OCC(=O)Nc3ccccc3)ccc2C(=O)N2Cc3ccccc3C[C@H]2CO)n1",
    "pIC50": 5.68
  },
  {
    "SMILES_INPUT": "CCCCN(CCCC)C(=O)c1cc(C)n(-c2cc(O)ccc2C(=O)N2Cc3ccccc3C[C@H]2CO)n1",
    "pIC50": "6.52 to 6.59"
  },
  {
    "SMILES_INPUT": "CCCCN(CCCC)C(=O)c1nn(-c2ccc(OC)cc2C(=O)N2Cc3ccccc3C[C@H]2CO)c(C)c1Cl",
    "pIC50": "5.77 to 5.86"
  }
]

BCL-2 binding to biotinylated BAD peptide (Homo sapiens (Human)) data for CCCCN(CCCC)C(=O)c1cc(C)n(-c2cc(OCC(=O)OCC)ccc2C(=O)N2Cc3ccccc3C[C@H]2CO)n1 ; its pIC50: 5.87 to 5.93

Measured pIC50 (BCL-2 binding to biotinylated BAD peptide (Homo sapiens (Human))), entry CCCCN(CCCC)C(=O)c1cc(C)n(-c2cc(OCC(=O)O)ccc2C(=O)N2Cc3ccccc3C[C@H]2CO)n1 : 6.98 to 7.00

Reported BCL-2 binding to biotinylated BAD peptide (Homo sapiens (Human)) pIC50 for item CCCCN(CCCC)C(=O)c1nn(-c2ccc(O)cc2C(=O)N2Cc3ccccc3C[C@H]2CO)c(C)c1Cl was 6.20 to 6.21

Data provenance: patent US9126979B2
